Test system: conscious mice
method: Determination of the prolongation of bleeding time
Assay type: in vivo
setup conditions: Mus musculus, po, 1 h, 10 mg/kg orally, after one hour, versus control group
Hi there, I'd appreciate the recorded change in vivo at 10 mg/kg for every entry that follows.
Form entry: value (%) — number only.

Measured change in vivo at 10 mg/kg, "CC(C)(C)c1cc(S(=O)(=O)CCCCOc2ccc3c(c2)C(C)(C)C(=O)N3)cc(C(C)(C)C)c1O" : 149

Per the records, this compound ( CC1(C)C(=O)Nc2ccc(OCCCC[S+]([O-])c3ccc(Cl)c(Cl)c3)cc21 (stereo not drawn) ) has change in vivo at 10 mg/kg equal to 59

###

System: conscious mice
method: Determination of the prolongation of bleeding time
Format: in vivo
setup conditions: Mus musculus, po, 1 h, 10 mg/kg orally, after one hour, versus control group
measured property: change in vivo at 10 mg/kg (%)
Your answer is read as %, so omit the unit and give the number.

Value of measured change in vivo at 10 mg/kg for the entry CC(C)(C)c1cc([S+]([O-])CCCCOc2ccc3c(c2)C(C)(C)C(=O)N3)cc(C(C)(C)C)c1O (stereo not shown) : 154

// COc1cc2ccc([S+]([O-])CCCCOc3ccc4c(c3)C(C)(C)C(=O)N4)cc2cc1OC (stereo not shown) : change in vivo at 10 mg/kg value = 102

The recorded change in vivo at 10 mg/kg for entry CC1(C)C(=O)Nc2ccc(OCCCC[S+]([O-])c3ccc(C4CCCCC4)cc3)cc21 (stereo not shown) equals 104

###

System: conscious mice
method: Determination of the prolongation of bleeding time
Type: in vivo
setup conditions: Mus musculus, po, 1 h, 10 mg/kg orally, after one hour, versus control group
measured property: change in vivo at 10 mg/kg

# change in vivo at 10 mg/kg of CC1(C)C(=O)Nc2ccc(OCCCC[S+]([O-])c3ccc(-c4ccccc4F)cc3)cc21 (stereo not drawn) = > 249%

The reported value for CC1(C)C(=O)Nc2ccc(OCCCCC[S+]([O-])c3ccc(C4CCCCC4)cc3)cc21 (stereo not drawn) in terms of change in vivo at 10 mg/kg is > 174%

Data point: CC(C)(C)c1ccc([S+]([O-])CCCCOc2ccc3c(c2)C(C)(C)C(=O)N3)cc1 (stereo not drawn) ; change in vivo at 10 mg/kg = > 285%

Lab book: change in vivo at 10 mg/kg of "CC1(C)C(=O)Nc2ccc(OCCCCSc3cc(Cl)c(O)c(Cl)c3)cc21" noted as 140%

For CC1(C)C(=O)Nc2ccc(OCCCC[S+]([O-])c3ccc4ccccc4c3)cc21 (stereo not drawn) the compound record lists change in vivo at 10 mg/kg as 127%

Query COc1ccc([S+]([O-])CCCCOc2ccc3c(c2)C(C)(C)C(=O)N3)cc1 (stereo not drawn) yields change in vivo at 10 mg/kg of > 214%

So for CC1(C)C(=O)Nc2ccc(OCCCC[S+]([O-])c3ccc(Cl)cc3)cc21 (stereo not drawn) , the logged change in vivo at 10 mg/kg turned out to be 114%

# change in vivo at 10 mg/kg (compound: "COc1cc2ccc(S(=O)(=O)CCCCOc3ccc4c(c3)C(C)(C)C(=O)N4)cc2cc1OC" ) is > 232%

The compound listed as "CC(C)(C)c1ccc(S(=O)(=O)CCCCOc2ccc3c(c2)C(C)(C)C(=O)N3)cc1" has a reported change in vivo at 10 mg/kg of > 242%
